# fold change of Tryptamine concentration listing for each entry below
Tested on: Clostridium sporogenes DSM 1664
testSummary: fold change of Tryptamine concentration vs plate DMSO controls (fold change (ratio)); higher = more amine produced, active = hit call of the paper (significant change in both replicates, either direction)
condition: 20 µM; incubation time: 27 h, anaerobic, 37 °C
Where a name gives a salt, the structure may show the parent alone.
Answer using only a numeral; do not append any unit.

- molecule: "CCN(CC)C(C)C(=O)c1ccccc1 (stereo unspecified) [Amfepramone hydrochloride]"
  assayedTarget: "Clostridium sporogenes DSM 1664"
  quantityName: "fold change of Tryptamine concentration"
  numericReadout: 1.03

Specify measured fold change of Tryptamine concentration for `N#Cc1sc2c(=O)c3ccccc3c(=O)c=2sc1C#N` . 0.877

Specify measured fold change of Tryptamine concentration for CC(C)=CC1C(C(=O)OCc2cccc(Oc3ccccc3)c2)C1(C)C (stereo unspecified) [Phenothrin] . 1.02

Specify measured fold change of Tryptamine concentration for `CCCN(CCC)C(=O)SCc1ccccc1` . 1.02

Specify measured fold change of Tryptamine concentration for CC(=O)NC1CCSC1=O (stereo unspecified) [Citiolone] . 1.05

Specify measured fold change of Tryptamine concentration for C#CCOc1ccc(CCNC(=O)C(OCC#C)c2ccc(Cl)cc2)cc1OC (stereo unspecified) . 0.986

----------
System: Ruminococcus gnavus DSM 108212
testSummary: fold change of 2-Phenylethylamine concentration vs plate DMSO controls (fold change (ratio)); higher = more amine produced, active = hit call of the paper (significant change in both replicates, either direction)
condition: 20 µM; incubation time: 27 h, anaerobic, 37 °C
Where a name gives a salt, the structure may show the parent alone.
quantityName: fold change of 2-Phenylethylamine concentration
Answer using only a numeral; do not append any unit.

Worked examples follow.
- compound: "COc1ccc(OC)c(C(O)C(C)N)c1 (centres undefined) [Methoxamine hydrochloride]"
  numericReadout: 0.165
- compound: "C[C@]12Cc3c[nH]nc3C[C@@H]1CC[C@@H]1[C@@H]2CC[C@@]2(C)[C@H]1CC[C@]2(C)O"
  numericReadout: 1
- compound: "CC(C)N(CCC(C(N)=O)(c1ccccc1)c1ccccn1)C(C)C (centres undefined) [Disopyramide]"
  numericReadout: 0.972
- compound: "O=C1C=CC(=O)C=C1"
  numericReadout: 1.66
- compound: "C=CCN1CC[C@]23c4c5ccc(O)c4O[C@H]2C(=O)CC[C@@]3(O)[C@H]1C5 [Naloxone hydrochloride]"
  numericReadout: 0.985

Specify measured fold change of 2-Phenylethylamine concentration for `CC(C)OC(=O)Nc1cccc(Cl)c1` . 1.06

Specify measured fold change of 2-Phenylethylamine concentration for `CNC(=O)c1cc(C#N)cc(C)c1NC(=O)c1cc(Br)nn1-c1ncccc1Cl` . 1.08

Specify measured fold change of 2-Phenylethylamine concentration for C[C@]12CC[C@H](O)C[C@@H]1CC[C@@H]1[C@@H]2CC[C@]2(C)C(=O)CC[C@@H]12 [Epiandrosterone] . 0.962

Specify measured fold change of 2-Phenylethylamine concentration for `C[C@]12CC[C@H]3[C@@H](CCC4=CC(=O)CC[C@@H]43)[C@@H]1CC[C@@H]2O` . 1.03

Specify measured fold change of 2-Phenylethylamine concentration for CC(=O)O[C@H]1C[C@H](O[C@H]2[C@@H](O)C[C@H](O[C@H]3[C@@H](O)C[C@H](O[C@H]4CC[C@@]5(C)[C@H](CC[C@@H]6[C@@H]5C[C@@H](O)[C@]5(C)[C@@H](C7=CC(=O)OC7)CC[C@]65O)C4)O[C@@H]3C)O[C@@H]2C)O[C@H](C)[C@H]1O[C@@H]1O[C@H](CO)[C@@H](O)[C@H](O)[C@H]1O [Lanatoside C] . 1.1

Specify measured fold change of 2-Phenylethylamine concentration for `O=C(O)C(F)(F)C(F)(F)C(F)(F)C(F)(F)C(F)(F)C(F)(F)F` . 0.98

Specify measured fold change of 2-Phenylethylamine concentration for N#Cc1nn(-c2c(Cl)cc(C(F)(F)F)cc2Cl)c(N)c1[S+]([O-])C(F)(F)F (centres undefined) [Fipronil] . 1.04

Specify measured fold change of 2-Phenylethylamine concentration for `Oc1cc(Cl)ccc1Oc1ccc(Cl)cc1Cl` . 0.734

Specify measured fold change of 2-Phenylethylamine concentration for `O=[N+]([O-])/N=C1\NCCN1Cc1ccc(Cl)nc1` . 1

Specify measured fold change of 2-Phenylethylamine concentration for `CON(C)C(=O)Nc1ccc(Cl)c(Cl)c1` . 0.976

Specify measured fold change of 2-Phenylethylamine concentration for `N#Cc1c[nH]cc1-c1cccc2c1OC(F)(F)O2` . 0.972

Specify measured fold change of 2-Phenylethylamine concentration for `CC(C)C[C@H](CN)CC(=O)O` . 1.06

Specify measured fold change of 2-Phenylethylamine concentration for `CSc1nc(NC(C)C)nc(NC(C)C)n1` . 1

Specify measured fold change of 2-Phenylethylamine concentration for `COc1cccc(C(=O)NN(C(=O)c2cc(C)cc(C)c2)C(C)(C)C)c1C` . 0.92

Specify measured fold change of 2-Phenylethylamine concentration for CC(C)(N)Cc1ccccc1 [Phentermine hydrochloride] . 0.213
